Target: T1, mouse serum albumin (mouse, UniProt P07724 25-608)
T1 construct: also called MSA
T1 sequence (P07724 25-608 limits assumed): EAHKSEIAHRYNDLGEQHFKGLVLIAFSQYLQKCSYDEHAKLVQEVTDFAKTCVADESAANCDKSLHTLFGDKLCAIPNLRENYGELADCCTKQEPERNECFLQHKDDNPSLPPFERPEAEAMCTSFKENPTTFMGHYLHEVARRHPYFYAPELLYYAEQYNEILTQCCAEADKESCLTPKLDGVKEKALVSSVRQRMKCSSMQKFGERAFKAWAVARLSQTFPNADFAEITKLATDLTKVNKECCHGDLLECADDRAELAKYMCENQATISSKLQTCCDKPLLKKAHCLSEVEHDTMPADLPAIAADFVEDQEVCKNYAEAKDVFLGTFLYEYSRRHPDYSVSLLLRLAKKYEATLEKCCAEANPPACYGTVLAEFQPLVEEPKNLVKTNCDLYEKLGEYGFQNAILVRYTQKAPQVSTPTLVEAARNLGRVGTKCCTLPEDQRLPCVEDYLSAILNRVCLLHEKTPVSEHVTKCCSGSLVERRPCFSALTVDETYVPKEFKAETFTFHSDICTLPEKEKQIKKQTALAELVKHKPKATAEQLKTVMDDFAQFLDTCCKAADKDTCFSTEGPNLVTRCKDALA
Experiment: SPR (Bruker Sierra SPR-32), MSA on chip, DARPin as analyte, 1:1 Langmuir fit
value.type: pKd
Quick note: pKd values are minus log10 of concentrations in mol/L.

Quick note, pKd for MAM283 (two domain ankyrin repeat protein, N-terminal His6-TEV tag) (designed binder, also called 2D DARPin) MRGSHHHHHHENLYFQDLGKKLLEAARAGQDDEVRELLKAGADVNAKDYFSHTPLHLAARNGHLKIVEVLLKAGADVNAKDFAGKTPLHLAADAGHLEIVEVLLKAGADVNAQDIFGKTPADIAADAGHEDIAEVLQKAAGSPTPTPTTPTPTPTTPTPTPTGSDLGKKLLAAAADGQDDEVRELLQAGADVNAKDLFGYTPLHLAAWRGHLEIVEVLLEAGADVNAKDAAGETPLHLAAWFGHLEIVEVLLEAGADVNAQDVQGKTPADLAAKEGHEDIAEVLQQAA landed at 6.29

Sourced from patent US20250332297A1
